Give measured protein stability index for each item. Keep answers brief.
- assay overview: protein stability index of a GFP-peptide fusion (GPS, HEK-293T) (PSI 1-6); higher = more stable;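 also: 24-mer peptide tiles fused after GFP, lentivirally expressed, FACS-sorted into six equal bins by GFP/DsRed ratio, decoded by Illumina sequencing, PSI is the read-weighted mean bin number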
- experimental conditions: treatment: DMSO; c terminus: a fixed tail appended
Reply with just the number.

Any idea what protein stability index was measured for RFCLVPSMEGVRWAFSCGTWLPSR [AASDHPPT] ?
2.48

Any idea what protein stability index was measured for LYAVGGHDGSSYLNSVERYDPKTN [KLHL20] ?
3.72

Any idea what protein stability index was measured for LLTLPRPPLSGALASITETIQVHR [HDAC6] ?
3.12

Any idea what protein stability index was measured for GIMCLKRLNYDRKELEKRREESQH [PPFIA4] ?
3.69

Any idea what protein stability index was measured for EEEDREEEDENGLPRRRGLRKKKT [NEUROD6] ?
5.53

Any idea what protein stability index was measured for EAASFLQILPVLDFCKVFLISGVT [KLHL13] ?
3.43

Any idea what protein stability index was measured for PSSYNCSQSILPLEHGSIYIPSSY [ESR2] ?
2.17

Any idea what protein stability index was measured for STASTTSTTNSTAAKPAASITSKP [ZNF207] ?
5.15

Any idea what protein stability index was measured for GSNDRVQGVISQLEDTCKTIEECC [TRIM55] ?
4.71

Any idea what protein stability index was measured for IHTGERPYKCPECGKSFSRSSHLV [ZNF263] ?
2.66

Any idea what protein stability index was measured for LIQFLEQVHQGIKGMVLDENYNNL [CPN1] ?
2.62

Any idea what protein stability index was measured for DKQKLKRTEIISRSWFPSAPGSAS [YJU2B] ?
3.56

Any idea what protein stability index was measured for FRVGKKIGCGNFGELRLGKNLYTN [CSNK1G3] ?
2.06
